Molecular target: T1, ALK7-Fc comprising protein (Homo sapiens (Human), UniProt Q8NER5 21-113)
T1 construct: not shown: The Fc part and any linker of the fusion; The construct's exact ALK7 limits are not seen either
T1 sequence: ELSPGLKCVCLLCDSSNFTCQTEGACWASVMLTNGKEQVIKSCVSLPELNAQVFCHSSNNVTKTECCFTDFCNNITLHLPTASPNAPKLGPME
Test: SPR (Biacore T100/T200), 25 °C; antibody captured on FAB chip, ALK7-Fc comprising protein as analyte; 1:1 model
measure-name: kon (M⁻¹ s⁻¹)
Record the value in M⁻¹ s⁻¹, omitting the unit from your answer.

For reference, reported kon for C03 (antibody, human IgG1, kappa, V domains shown, also called mAb C03; antibody C03) VH: QLQLQESGPGLVKPSETLSLTCTVSGGSISSSAYYWAWIRQPPGKGLEWIGSIYLSGSTTYNPSLKSRVTISVDTSKNQFSLKLSSVTAADTAVYYCARDGRYQSRSPDYYYGMDVWGQGTTVTVSS VL: EIVLTQSPGTLSLSPGERATLSCKASQSVSSSYLAWYQQKPGQAPRLLIYGAFSRANGIPDRFSGSGSGTDFTLTISRLEPEDFAVYYCQQLVSYPFTFGGGTKVEIKR stands at 38300

Data origin: patent US20240287196A1
